Reference for the values: ChEMBL document CHEMBL5308541

Tested on: Plasmodium falciparum
Experiment: Confirmatory screen in NF54 nanoGlo assay, in single point, at 2uM, 72h
Assay type: functional, Erythrocyte
Details: timepoint 72 hour
Screen size: about 4,800 compounds; about 420 (8.8%) showed an effect of 50% or more. Shown is part of a subset that was picked to be rich in strong results.
Recorded % Inhibition determines the group label, using low interval: < 30%; middle interval: ≥ 30% and < 60%; high interval: ≥ 60%

Q: For this molecule, which bin applies? CCCC(=O)NC1COCC1Cc1ccncc1 (stereo unspecified)
Ans: high interval

Q: Try the molecule `Cc1cc(N2CCC(N(C)Cc3cc(-c4ccccc4)n[nH]3)CC2)nc(N)n1`
Ans: low interval

Q: Try the molecule `FC(F)(F)c1ccc(N2CCC[C@H](NC3CCN(Cc4ccco4)CC3)C2)nc1`
Ans: low interval

Q: Try the molecule Cc1cc(N2CCC(NC3CCCC3Cc3ccc(F)cc3)CC2)nc(N)n1 (stereo unspecified)
Ans: high interval

Q: Try the molecule `Cc1nc2ccc(Oc3ccccc3)cc2c(O)c1CN(C)C1CCN(C)CC1`
Ans: low interval

Q: Try the molecule `CN1CCC(N(C)C[C@H](Nc2ncnc3ccccc23)c2ccccc2)CC1`
Ans: high interval

Q: Try the molecule `CN1C(C)(C)CC(NC(=O)c2ccc(-c3cc(-c4cccc(C(F)(F)F)c4)n[nH]3)cc2)CC1(C)C`
Ans: middle interval

Q: Try the molecule `C[C@H](Nc1nc(N)c2ccccc2n1)c1cccc(-n2cncn2)c1`
Ans: middle interval

Q: Try the molecule `OCCN1CCC(NCCc2cc(Cl)cc(Cl)c2)CC1`
Ans: low interval

Q: Try the molecule `COCCNc1nc(N[C@@H](C)c2ccccc2)c2ccccc2n1`
Ans: high interval
